test_target: T1, Rat
T1 construct: also called rat EphA4 extracellular domain-SEAP-His protein
assay_comment: ELISA
Recorded absorbance, one value per entry.
experimental_endpoint: absorbance

binder="KPEP11_05 (antibody, V domains shown, Rabbit IgG; also called anti-human EphA4 rabbit monoclonal antibody KPEP11_05) VH: QSLEESGGRLVTPGGSLTLTCTVSGIDLSSYAMSWVRQAPEKGLEWIGFINNYGTYYASWAKGRFTISKTSTTVDLKVTSLTTEDTATYFCVRGGRSPNYDIVSGDIWGPGTLVTVSS VL: YVMMTQTPSSVSEPVGGTVTIKCQASQNIYNSLAWYQQKPGQRPKLLIADASELASGVPQRFSGSGSGTQFTLTISDLECADAATYYCQSSSAGDSYVGGFGGGTEVVVKG" value_reported=0.043
binder="KPEP11_01 (antibody, V domains shown, also called anti-human EphA4 rabbit monoclonal antibody KPEP11_01) VH: QSVEESGGRLVTPGTPLTLTCTVSGFSLSSYHMSWVRQAPGKGLEWIGIIYRSGNTYSANWAKGRFTISKTSTTVDLKITSPTTEDTATYFCARESSTFYGMDLWGPGTLVTVSS VL: YVMMTQTPSSVSAAVGGTVTINCQASQSVYGNNELAWYQQKPGQRPKLLIYRASTLASGVPSRFKGSGSGTEFTLTISDLECADAATYYCLGYKSDDYTFGGGTKVEIKG" value_reported=0.042
binder="KPEP11_18 (antibody, V domains shown, Rabbit IgG/kappa; Used coated or HRP-labeled in the sandwich ELISAs; also called anti-human EphA4 rabbit monoclonal antibody KPEP11_18; HRP-labeled KPEP11_18) VH: QSLEESGGRLVTPGTPLTLTCTISGFSLSSFYINWVRQAPGRGLEWIGIIYPDIDATDYASWVKGRFTISKTSTTVDLKITSPTTEDTATYFCARSDVDYYTTRLDLWGQGTLVTVSS VL: DPMMTQTASPVSAAVGGTVSISCQSNKSVYSNWLSWFQQKPGQPPKLLIYGASTLASGVPSRFKGSGSGTQFTLTVSDVQCDDAATYFCLGGYRDNSDNAFGGGTEVVVKG" value_reported=0.067
